- target or system: NAMPT (Homo sapiens)
- assay method text: Time-Resolved Fluorescence Resonance Energy Transfer (TR-FRET) Binding Assay of NAMPT
- test conditions: 6.8 nM NAMPT, 200 nM probe, equilibrated 3 hours, no substrates
- Procedure: Determination of the utility of compounds having Formula (I) as binders to and inhibitors of NAMPT was performed using Time-Resolved Fluorescence Resonance Energy Transfer (TR-FRET) binding assays. Time-Resolved Fluorescence Resonance Energy Transfer (TR-FRET) Binding Assay of NAMPT Six L were transferred to 384-well low-volume plates ([…] #3673). To this, 12 L of a 1.5× solution containing enzyme, probe and antibody were added. […]
pIC50: −log10 of the molar value.
Binary classification by pIC50, with 7 as an inclusive lower bound for 1 (yes); all other cases are 0 (no).

Has CC(C)C(C)C(=O)N1CC(c2ccc(NC(=O)N3CC(c4cccnc4)C3)cc2)C1 (stereo not drawn) a recorded pIC50 greater than or equal to 7?
1 (yes)

Is the recorded value of pIC50 equal to or greater than 7 for this compound? CCCC(C)CN1CCC(c2ccc(NC(=O)N3CC(c4cccnc4)C3)cc2)CC1 (stereo not drawn)
0 (no)

Say whether O=C(Nc1ccc(C2CCN(C(=O)c3nccs3)CC2)cc1)N1CC(c2cccnc2)C1 shows pIC50 of 7 or more.
1 (yes)

Say whether CCC(C)(C)C(=O)N1CC[C@@H](Oc2ccc(NC(=O)N3CC(c4cccnc4)C3)cc2)C1 shows pIC50 of 7 or more.
1 (yes)

Given CC(C)C(=O)N1CC=C(c2ccc(NC(=O)N3CC(c4cccnc4)C3)cc2)CC1 , state whether its pIC50 is at least 7.
1 (yes)

Is the recorded value of pIC50 equal to or greater than 7 for this compound? O=C(Nc1ccc(OC2CCN(C(=O)[C@@H]3CCCO3)CC2)cc1)N1CC(c2cccnc2)C1
1 (yes)

Could you please find out whether O=C(CN1CCCC1)N1CCC(c2ccc(NC(=O)N3CC(c4cccnc4)C3)cc2)C1 (stereo not drawn) has pIC50 that meets 7 or exceeds it?
0 (no)

Is the recorded value of pIC50 equal to or greater than 7 for this compound? O=C(Nc1ccc(OC2CCN(C(=O)[C@H]3CCCO3)CC2)cc1)N1CC(c2cccnc2)C1
1 (yes)

Is pIC50 for Cc1ccc(C(=O)N2CC(c3ccc(NC(=O)N4CC(c5cccnc5)C4)cc3)C2)s1 at or above 7?
1 (yes)

Hi, just wondering whether O=C(CC(F)(F)F)N1CC=C(c2ccc(NC(=O)N3CC(c4cccnc4)C3)cc2)CC1 shows pIC50 of 7 or higher.
1 (yes)

---

Listing of recorded IC50 by entry.
- target or system: NAMPT (Homo sapiens, UniProt P43490)
- Sequence (P43490 whole entry): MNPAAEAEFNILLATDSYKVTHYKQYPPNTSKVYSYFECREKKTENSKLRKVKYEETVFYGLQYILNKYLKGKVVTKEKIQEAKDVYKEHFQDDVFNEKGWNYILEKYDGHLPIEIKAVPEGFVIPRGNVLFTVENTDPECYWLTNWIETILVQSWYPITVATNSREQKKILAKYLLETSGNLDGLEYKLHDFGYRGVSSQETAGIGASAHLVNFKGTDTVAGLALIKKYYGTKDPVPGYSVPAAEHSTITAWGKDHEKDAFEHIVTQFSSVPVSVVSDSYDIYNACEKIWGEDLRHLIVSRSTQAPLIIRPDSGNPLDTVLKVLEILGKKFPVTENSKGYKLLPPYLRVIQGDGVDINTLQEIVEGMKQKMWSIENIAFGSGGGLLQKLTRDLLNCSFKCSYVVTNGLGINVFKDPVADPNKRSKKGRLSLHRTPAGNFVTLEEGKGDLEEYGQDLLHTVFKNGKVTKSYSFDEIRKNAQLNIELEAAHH
- assay method text: Time-Resolved Fluorescence Resonance Energy Transfer (TR-FRET) Binding Assay of NAMPT
- test conditions: 6.8 nM NAMPT, 200 nM probe, equilibrated 3 hours, no substrates
A number alone suffices; assume nM.

Would you please look over these solved cases?
1) CC(C)(C)CC(=O)N1CC(c2ccc(NC(=O)N3CC(c4cccnc4)C3)cc2)C1 [Example 205]    42.6
2) O=C(Nc1ccc(C2CN(C(=O)c3ccsc3)C2)cc1)N1CC(c2cccnc2)C1 [Example 219]    19.4
3) O=C(Nc1ccc(OC2CN(C(=O)c3ccno3)C2)cc1)N1CC(c2cccnc2)C1 [Example 148]    27.7

Suppose we examine the compound CC[C@H](C)C(=O)N1CC[C@@H](Oc2ccc(NC(=O)N3CC(c4cccnc4)C3)cc2)C1 [Example 86] ; what IC50 value has been reported?
27.4

Given O=C(CC1CCOCC1)N1CCC(Oc2ccc(NC(=O)N3CCN(c4cccnc4)CC3)cc2)CC1 [Example 162] , state its recorded IC50.
357

Would you mind telling me what IC50 value was observed for CCC(C)(C)C(=O)N1CC(c2ccc(NC(=O)N3CC(c4cccnc4)C3)cc2)C1 [Example 204] ?
48.6

Quick one: IC50 for CCCC(=O)N1CC(c2ccc(NC(=O)N3CC(c4cccnc4)C3)cc2)C1 [Example 111] ?
53.9

---

- target or system: NAMPT (Homo sapiens)
- assay method text: TR-FRET Binding Assay of NAMPT with PRPP
- test conditions: 2 nM NAMPT, 2 nM probe, 200 µM PRPP and 2.5 mM ATP, equilibrated 16 hours
pIC50 by entry:
Please treat pIC50 as minus the base-10 logarithm of the molar concentration.

Please review the entries below; each comes with its answer.
1) CCCC(=O)N1CC(c2ccc(NC(=O)N3CC(c4cccnc4)C3)cc2)C1 [Example 111]    9.53
2) CC(C)CN1CCC(c2ccc(NC(=O)N3CC(c4cccnc4)C3)cc2)CC1 [Example 235]    9.67
3) CCOCC(=O)N1CCC(c2ccc(NC(=O)N3CC(c4cccnc4)C3)cc2)CC1 [Example 173]    9.41
4) O=C(Nc1ccc(C2CCN(C(=O)C3CCCCC3)CC2)cc1)N1CC(c2cccnc2)C1 [Example 177]    9.52
5) O=C(Nc1ccc(O[C@@H]2CCN(C(=O)c3ccco3)C2)cc1)N1CC(c2cccnc2)C1 [Example 326]    9.53
6) CCCC(=O)N1CC(Oc2ccc(NC(=O)N3CC(c4cccnc4)C3)cc2)C1 [Example 129]    9.40
7) O=C(CC1CC2CCC1C2)N1CCC(Oc2ccc(NC(=O)N3CC(c4cccnc4)C3)cc2)C1 (centres unmarked) [Example 299]    9.35
8) O=C(Nc1ccc(C2CCN(C(=O)c3ccccc3)C2)cc1)N1CC(c2cccnc2)C1 (centres unmarked) [Example 71]    9.74
9) CCCC(C)CN1CCC(c2ccc(NC(=O)N3CC(c4cccnc4)C3)cc2)CC1 (centres unmarked) [Example 234]    9.28
10) O=C(CC1CCOCC1)N1CCC(Oc2ccc(NC(=O)N3CC(c4cccnc4)C3)cc2)CC1 [Example 2]    9.43

Any idea what its pIC50 is? The compound is CC(C)(C)CC(=O)N1CC(Oc2ccc(NC(=O)N3CC(c4cccnc4)C3)cc2)C1 [Example 133]
9.45

Fill blank: measured pIC50 of the compound CC(=O)N[C@@H](CC(C)C)C(=O)N1CCC(c2ccc(NC(=O)N3CC(c4cccnc4)C3)cc2)CC1 [Example 175] is ____.
9.39

Query (compound): O=C(CC1CCCCC1)N1CCC(c2ccc(NC(=O)N3CC(c4cccnc4)C3)cc2)CC1 [Example 178] ; field requested: pIC50
9.38

---

Listed here are compounds together with their documented pIC50.
- target or system: NAMPT (Homo sapiens, UniProt P43490)
- assay method text: Time-Resolved Fluorescence Resonance Energy Transfer (TR-FRET) Binding Assay of NAMPT
- test conditions: 6.8 nM NAMPT, 200 nM probe, equilibrated 3 hours, no substrates
Schema: pIC50 number; meaning minus log10 of the concentration expressed in molar units.

Solved cases below.
1) Cc1ccc(C(=O)N2CC[C@@H](Oc3ccc(NC(=O)N4CC(c5cccnc5)C4)cc3)C2)s1    7.38
2) CCOCC(=O)N1CC(c2ccc(NC(=O)N3CC(c4cccnc4)C3)cc2)C1    6.35
3) O=C(CC(F)(F)F)N1CCC(c2ccc(NC(=O)N3CC(c4cccnc4)C3)cc2)C1 (stereo not shown)    7.18
4) COCCOCC(=O)N1CCC(c2ccc(NC(=O)N3CC(c4cccnc4)C3)cc2)CC1    7.18
5) CCCC(=O)N1CCC(c2ccc(NC(=O)N3CC(c4cccnc4)C3)cc2)CC1    8.25

Query: pIC50; subject: CC(C)(C)OC(=O)N1CCC(CCCCNC(=O)N2CC(c3cccnc3)C2)CC1
6.51

# input compound: O=C(Nc1ccc(OC2CN(C(=O)c3cccs3)C2)cc1)N1CC(c2cccnc2)C1 ; wanted: its pIC50
7.75

Quick check: pIC50 of O=C(CN1CCOCC1)N1CCC(c2ccc(NC(=O)N3CC(c4cccnc4)C3)cc2)C1 (stereo not shown) ?
6.84

Which pIC50 value belongs to Cc1ccsc1C(=O)N1CCC(c2ccc(NC(=O)N3CC(c4cccnc4)C3)cc2)C1 (stereo not shown) ?
8.09

What value of pIC50 has been reported for the following compound? O=C(CC1CC1)N1CCC(Oc2ccc(NC(=O)N3CC(c4cccnc4)C3)cc2)CC1
7.30

---

- target or system: NAMPT (Homo sapiens)
- assay method text: Time-Resolved Fluorescence Resonance Energy Transfer (TR-FRET) Binding Assay of NAMPT
- test conditions: 6.8 nM NAMPT, 200 nM probe, equilibrated 3 hours, no substrates
assay endpoint: IC50 (nM)
Give the quantity in nM, number only.

Take a look at these entries with their results.
1. O=C(CC(F)(F)F)N1CC[C@H](Oc2ccc(NC(=O)N3CC(c4cccnc4)C3)cc2)C1 [Example 96]    265
2. O=C(CN1CCOCC1)N1CC(Oc2ccc(NC(=O)N3CC(c4cccnc4)C3)cc2)C1 [Example 143]    136
3. CC(C)(C)OC(=O)N1CCC(c2ccc(NC(=O)N3CC(c4cccnc4)C3)cc2)C1 (stereo not shown) [Example 59]    38.5

Could you now look at the following molecule, please?
For the molecule CC1(C(=O)N2CC(c3ccc(NC(=O)N4CC(c5cccnc5)C4)cc3)C2)CCCCC1 [Example 215] , what IC50 is on record?
27.4

The origin of these recorded values is patent US9296723B2.
